The values you see were collected from paper PMC8300937.

TARGET_OF_ASSAY: Recombinant human iNOS (Homo sapiens)
Construct: purchased Enzo Life Sciences, Inc
PROCEDURE_TEXT: iNOS inhibition, L-citrulline assay with fluorimetric (HPLC) detection
Assay type: biochemical
RECORDED_CONDITIONS: read-out: iNOS % inhibition
Label rule, in plain words: inhibition at 1 µM of 30% and up is Condition met, under 30% is Condition not met.

COMPOUND	CLASS_ASSIGNMENT
O=C(OC(Cc1ccccc1)Cn1ccnc1)c1cc([N+](=O)[O-])cc([N+](=O)[O-])c1 (stereo not drawn)	Condition met
O=S(=O)(c1ccccc1)N1CCCC(Cn2cncn2)C1 (stereo not drawn)	Condition not met
O=C(NCc1ccccc1)OC(Cc1ccccc1)Cn1ccnc1 (stereo not drawn)	Condition met
COc1ccc(S(=O)(=O)N2CCCC(Cn3cncn3)C2)c(OC)c1 (stereo not drawn)	Condition not met
N#Cc1ccc(S(=O)(=O)N2CCCC(Cn3cncn3)C2)c(Cl)c1 (stereo not drawn)	Condition not met
O=C(OC(Cc1ccccc1)Cn1ccnc1)c1cccc(C(=O)c2ccccc2)c1 (stereo not drawn)	Condition met
